Give measured IC50 for each item. Keep answers brief.
targetOfAssay: ATPase (Bos taurus)
Construct: from tissue; host or cells: bovine sub-mitochondrial particles (SMPs)
measurementProtocol: ATPase inhibition assay
Format: biochemical
conditionParameters: read-out: ATPase IC50

Before answering, review these 3 worked examples.
Data request, read-out IC50, for O=C(O)Cn1c(=O)[nH]c2ccc(C3=NC(Cc4ccccc4Cl)C(=O)Nc4ccc(Cl)cc43)cc21 (stereo not shown) > 7 µM

Data request, read-out IC50, for Cn1c(=O)[nH]c2ccc(C3=NC(Cc4ccccc4Cl)C(=O)Nc4c(O)cc(Cl)cc43)cc21 (stereo not shown) < 7 µM

Data request, read-out IC50, for O=C1Nc2ccc(Cl)cc2C(c2ccc3[nH]c(=O)n(CCCO)c3c2)=N[C@@H]1Cc1ccccc1Cl < 7 µM

Next compound, please.
Data request, read-out IC50, for O=C1Nc2ccc(Cl)cc2C(c2ccc3[nH]c(=O)n(CCCO)c3c2)=N[C@H]1Cc1ccccc1Cl < 7 µM

----------
targetOfAssay: ATPase (Bos taurus, UniProt P13621)
Construct: from tissue; host or cells: bovine sub-mitochondrial particles (SMPs)
measurementProtocol: ATPase inhibition assay
Assay type: biochemical
conditionParameters: read-out: ATPase IC50
Give measured IC50 for each item. Keep answers brief.

Before answering, review these 3 worked examples.
Data request, read-out IC50, for CCn1c(=O)[nH]c2cc(C3=NC(Cc4ccc5ccccc5c4)C(=O)Nc4ccc(Cl)cc43)ccc21 (stereo not shown) < 7 µM

Data request, read-out IC50, for CCc1ccc(CC2N=C(c3ccc(O)c(CC(N)=O)c3)c3cc(Cl)ccc3NC2=O)cc1CC (stereo not shown) > 7 µM

Data request, read-out IC50, for CCn1c(=O)[nH]c2ccc(C3=NC(Cc4ccc5ccccc5c4)C(=O)N(C)c4ccc(Cl)cc43)cc21 (stereo not shown) < 7 µM

Others:
Data request, read-out IC50, for Cn1c(=O)[nH]c2ccc(C3=NC(Cc4ccccc4Cl)C(=O)Nc4c(F)cc(Cl)cc43)cc21 (stereo not shown) < 7 µM

----------
Give measured IC50 for each item. Keep answers brief.
targetOfAssay: ATPase (Bos taurus)
Construct: from tissue; host or cells: bovine sub-mitochondrial particles (SMPs)
measurementProtocol: ATPase inhibition assay
Type: biochemical

Before answering, review these 5 worked examples.
Find the measured IC50: item Cc1cc(C2=N[C@@H](Cc3ccccc3Cl)C(=O)Nc3ccc(Cl)cc32)ccc1O , target or system ATPase (Bos taurus). < 7 µM

Find the measured IC50: item Cc1cc(C2=N[C@H](Cc3ccccc3Cl)C(=O)Nc3ccc(Cl)cc32)ccc1O , target or system ATPase (Bos taurus). < 7 µM

Find the measured IC50: item Cn1c(=O)[nH]c2ccc(C3=NC(Cc4ccccc4Cl)C(=O)Nc4ccc(Cl)cc43)cc21 (stereo not drawn) , target or system ATPase (Bos taurus). < 7 µM

Find the measured IC50: item Cn1c(=O)[nH]c2ccc(C3=NC(Cc4ccc(Cl)cc4)C(=O)Nc4ccc(Cl)cc43)cc21 (stereo not drawn) , target or system ATPase (Bos taurus). < 7 µM

Find the measured IC50: item Cc1cc(C2=NC(Cc3cc(F)ccc3Cl)C(=O)Nc3ccc(Cl)cc32)ccc1O (stereo not drawn) , target or system ATPase (Bos taurus). < 7 µM

For the 7 compounds below, give their IC50 values.
1. Cc1cc(C2=NC(Cc3ccc(F)cc3Cl)C(=O)Nc3ccc(Cl)cc32)ccc1O (stereo not drawn)
2. Cc1cc(C2=NC(Cc3ccc(C(F)(F)F)cc3)C(=O)Nc3ccc(Cl)cc32)ccc1O (stereo not drawn)
3. Cc1cc(C2=NC(Cc3ccc(Cl)cc3)C(=O)Nc3ccc(Cl)cc32)ccc1O (stereo not drawn)
4. Cn1c(=O)[nH]c2ccc(C3=N[C@H](Cc4ccccc4Cl)C(=O)Nc4ccc(Cl)cc43)cc21
5. Cn1c(=O)[nH]c2ccc(C3=N[C@@H](Cc4ccccc4Cl)C(=O)Nc4ccc(Cl)cc43)cc21
6. Cc1cc(C2=NC(Cc3ccccc3C(F)(F)F)C(=O)Nc3ccc(Cl)cc32)ccc1O (stereo not drawn)
7. O=C1Nc2ccc(F)cc2C(c2ccc3[nH]c(=O)[nH]c3c2)=NC1Cc1ccccc1Cl (stereo not drawn)

< 7 µM
> 7 µM
< 7 µM
< 7 µM
< 7 µM
< 7 µM
> 7 µM

----------
targetOfAssay: ATPase (Bos taurus)
Construct: from tissue; host or cells: bovine sub-mitochondrial particles (SMPs)
measurementProtocol: ATPase inhibition assay
Assay type: biochemical
conditionParameters: read-out: ATPase IC50
Description: Representative compounds were tested for cytotoxicity in Ramos cells and inhibitory activity against ATPase. The Ramos cell death assay and ATPase inhibition assay were conducted as described in K. M. Johnson et al. Chemistry & Biology 2005, 12, 485-496.
Give measured IC50 for each item. Keep answers brief.

Before answering, review these 4 worked examples.
Data request, read-out IC50, for O=C1Nc2ccc(Cl)cc2C(c2ccc3[nH]c(=O)n(CCO)c3c2)=NC1Cc1ccccc1Cl (stereo not shown) > 7 µM

Data request, read-out IC50, for CNC(=O)Cn1c(=O)[nH]c2ccc(C3=NC(Cc4ccccc4Cl)C(=O)Nc4ccc(Cl)cc43)cc21 (stereo not shown) > 7 µM

Data request, read-out IC50, for CN1C(=O)C(Cc2ccccc2Cl)N=C(c2ccc3[nH]c(=O)n(C)c3c2)c2cc(Cl)ccc21 (stereo not shown) < 7 µM

Data request, read-out IC50, for O=C1Nc2ccc(Cl)cc2C(c2ccc3[nH]c(=O)n(CCCO)c3c2)=NC1Cc1ccccc1Cl (stereo not shown) < 7 µM

For the 3 molecules below, give their IC50 values.
1. CN1C(=O)C(Cc2ccccc2Cl)N=C(c2ccc3[nH]c(=O)n(CCCO)c3c2)c2cc(Cl)ccc21 (stereo not shown)
2. Cn1c(=O)[nH]c2ccc(C3=NC(Cc4ccccc4Cl)C(=O)N(CCO)c4ccc(Cl)cc43)cc21 (stereo not shown)
3. COc1cc(Cl)cc2c1NC(=O)C(Cc1ccccc1Cl)N=C2c1ccc2[nH]c(=O)n(C)c2c1 (stereo not shown)

1: < 7 µM; 2: < 7 µM; 3: < 7 µM
